Tested on: ACHN renal
Assay: NCI tumour cell line growth inhibition, 48 h
# key: entry, value: TGI
assay.metric: TGI

INSERT INTO measurements (molecule, recorded_measurement) VALUES
  ('CCOC(=O)C1(C(=O)OCC)CN(CC)CN(c2ccccc2)C1', '35.8 µM'),
  ('O=C1C(Cl)C(c2ccccc2)N1n1cnc2ccccc2c1=O (stereo not given)', '> 100 µM'),
  ('CC(=O)OC1CC2c3cccc4c3C(CC2N(C)C1=O)CN4C(=O)c1ccccc1 (stereo not given)', '55.5 µM'),
  ('CN(Nc1cc(=O)[nH]c(=O)[nH]1)c1ccccc1', '> 100 µM'),
  ('NC(=O)C(=CNc1nc(-c2ccc(Cl)c(Cl)c2)cs1)C(N)=O', '> 100 µM'),
  ('CC1(C)OCC2OC3(c4nc(C#N)c(N)o4)OC(C)(C)OC3C2O1 (stereo not given)', '> 100 µM'),
  ('O=C(C(=O)N1CCc2ccccc21)c1c[nH]c2ccccc12', '> 10 µM'),
  ('COc1ccc2c3c1O[C@H]1C(O)CCC4(O)[C@@H](C2)NCC[C@]314 (stereo not given in full)', '> 100 µM'),
  ('CCOC(=O)[C@H](CCCNC(=O)OC(C)(C)C)NCc1ccc(OC)c(OC)c1', '> 100 µM'),
  ('O=C(O)Cc1c(O)ccc2ccccc12', '> 100 µM'),
  ('O=C(c1ccccc1)c1c(-c2ccccc2)[nH]n(-c2ccc([N+](=O)[O-])cc2)c(=O)c1=O', '> 100 µM'),
  ('O=C(CCCN1CC=C(n2c(=O)[nH]c3ccccc32)CC1)c1ccc(F)cc1', '> 100 µM'),
  ('CCN1C(=O)N(CC)C2C1NC(=S)N2/N=C/C=C/c1cccs1 (stereo not given)', '> 100 µM'),
  ('CN=NN(C)C(=O)NC', '> 100 µM'),
  ('CCOC(=O)c1nc2c(Cl)c3ncccc3cc2[nH]c1=O', '> 100 µM'),
  ('COC(=O)/C=C/C1C(C(=O)OC)C2(C(=O)OC)CCC1(C(=O)OC)N2 (stereo not given)', '> 100 µM'),
  ('N#Cc1c(-c2ccccc2)[nH]c2ccccc2c1=O', '> 100 µM'),
  ('COc1ccc2c(c1)CC[C@@H]1[C@@H]2CC[C@]2(C)C(=O)/C(=C/c3ccc(OC)c(OC)c3)C[C@@H]12', '> 100 µM'),
  ('N#CC(C(=O)/C(=N/Nc1nc(=S)[nH]n1N)C(C#N)c1ccccc1)c1ccccc1 (stereo not given)', '> 100 µM'),
  ('Nc1nc(Br)nc2c1ncn2C1CC(O)C(CO)O1 (stereo not given)', '> 100 µM');
